Target: Tyrosine-protein kinase JAK3 (Homo sapiens, UniProt P52333)
Sequence (P52333 whole entry): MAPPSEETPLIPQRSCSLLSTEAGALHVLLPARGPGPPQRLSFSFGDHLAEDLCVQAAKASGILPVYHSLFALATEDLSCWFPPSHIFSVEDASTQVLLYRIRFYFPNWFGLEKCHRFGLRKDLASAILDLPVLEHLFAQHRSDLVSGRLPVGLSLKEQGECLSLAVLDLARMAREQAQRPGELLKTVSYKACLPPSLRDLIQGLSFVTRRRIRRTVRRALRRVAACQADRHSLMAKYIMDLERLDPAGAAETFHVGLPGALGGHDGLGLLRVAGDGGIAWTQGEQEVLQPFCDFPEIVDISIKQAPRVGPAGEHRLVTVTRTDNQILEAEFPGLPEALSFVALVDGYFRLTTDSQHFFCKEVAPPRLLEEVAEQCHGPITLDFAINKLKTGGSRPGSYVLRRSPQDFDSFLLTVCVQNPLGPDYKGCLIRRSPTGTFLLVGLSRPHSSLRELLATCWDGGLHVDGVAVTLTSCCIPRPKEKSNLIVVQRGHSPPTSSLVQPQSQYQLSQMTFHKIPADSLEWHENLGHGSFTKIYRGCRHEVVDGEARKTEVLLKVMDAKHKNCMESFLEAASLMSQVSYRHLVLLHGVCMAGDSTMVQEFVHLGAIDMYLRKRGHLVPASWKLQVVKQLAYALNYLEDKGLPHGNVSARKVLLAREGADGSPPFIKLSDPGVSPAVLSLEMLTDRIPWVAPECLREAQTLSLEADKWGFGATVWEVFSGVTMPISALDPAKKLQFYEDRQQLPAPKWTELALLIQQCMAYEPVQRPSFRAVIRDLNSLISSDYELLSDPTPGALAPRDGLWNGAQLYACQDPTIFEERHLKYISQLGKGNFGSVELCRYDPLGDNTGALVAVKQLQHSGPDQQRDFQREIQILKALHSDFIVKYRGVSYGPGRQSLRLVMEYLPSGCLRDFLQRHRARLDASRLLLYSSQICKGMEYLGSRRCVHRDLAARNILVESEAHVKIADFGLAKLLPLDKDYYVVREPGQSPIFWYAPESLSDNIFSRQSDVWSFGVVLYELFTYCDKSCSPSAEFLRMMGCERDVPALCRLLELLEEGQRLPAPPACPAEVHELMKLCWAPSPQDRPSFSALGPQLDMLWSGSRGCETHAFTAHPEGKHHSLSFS
Experiment: Inhibition of human recombinant JAK3 preincubated for 15 mins followed by substrate addition measured after 60 mins by HTRF assay
pIC50: −log10 of the molar value.
Documented pIC50 across a set of compounds
metricName: pIC50

> print(dat)
                            structurestring                              targetsystem  metricname  reportedmeasurement
1  NC(=O)c1nnc(-c2c(F)cccc2Cl)cc1Nc1ccc(N2CCOCC2)cc1  Tyrosine-protein kinase JAK3 (Homo sapiens, UniProt P52333)       pIC50                 7.96
2  NC(=O)c1nnc(-c2c(F)cccc2F)cc1Nc1ccc(N2CCOCC2)cn1  Tyrosine-protein kinase JAK3 (Homo sapiens, UniProt P52333)       pIC50                 9.00
3  NC(=O)c1nnc(-c2c(F)cccc2F)cc1Nc1ccc(N2CCOCC2=O)cn1  Tyrosine-protein kinase JAK3 (Homo sapiens, UniProt P52333)       pIC50                 8.15

###

Target: Non-receptor tyrosine-protein kinase TYK2 (Homo sapiens, UniProt P29597)
Sequence (P29597 whole entry, the tested form may be a part): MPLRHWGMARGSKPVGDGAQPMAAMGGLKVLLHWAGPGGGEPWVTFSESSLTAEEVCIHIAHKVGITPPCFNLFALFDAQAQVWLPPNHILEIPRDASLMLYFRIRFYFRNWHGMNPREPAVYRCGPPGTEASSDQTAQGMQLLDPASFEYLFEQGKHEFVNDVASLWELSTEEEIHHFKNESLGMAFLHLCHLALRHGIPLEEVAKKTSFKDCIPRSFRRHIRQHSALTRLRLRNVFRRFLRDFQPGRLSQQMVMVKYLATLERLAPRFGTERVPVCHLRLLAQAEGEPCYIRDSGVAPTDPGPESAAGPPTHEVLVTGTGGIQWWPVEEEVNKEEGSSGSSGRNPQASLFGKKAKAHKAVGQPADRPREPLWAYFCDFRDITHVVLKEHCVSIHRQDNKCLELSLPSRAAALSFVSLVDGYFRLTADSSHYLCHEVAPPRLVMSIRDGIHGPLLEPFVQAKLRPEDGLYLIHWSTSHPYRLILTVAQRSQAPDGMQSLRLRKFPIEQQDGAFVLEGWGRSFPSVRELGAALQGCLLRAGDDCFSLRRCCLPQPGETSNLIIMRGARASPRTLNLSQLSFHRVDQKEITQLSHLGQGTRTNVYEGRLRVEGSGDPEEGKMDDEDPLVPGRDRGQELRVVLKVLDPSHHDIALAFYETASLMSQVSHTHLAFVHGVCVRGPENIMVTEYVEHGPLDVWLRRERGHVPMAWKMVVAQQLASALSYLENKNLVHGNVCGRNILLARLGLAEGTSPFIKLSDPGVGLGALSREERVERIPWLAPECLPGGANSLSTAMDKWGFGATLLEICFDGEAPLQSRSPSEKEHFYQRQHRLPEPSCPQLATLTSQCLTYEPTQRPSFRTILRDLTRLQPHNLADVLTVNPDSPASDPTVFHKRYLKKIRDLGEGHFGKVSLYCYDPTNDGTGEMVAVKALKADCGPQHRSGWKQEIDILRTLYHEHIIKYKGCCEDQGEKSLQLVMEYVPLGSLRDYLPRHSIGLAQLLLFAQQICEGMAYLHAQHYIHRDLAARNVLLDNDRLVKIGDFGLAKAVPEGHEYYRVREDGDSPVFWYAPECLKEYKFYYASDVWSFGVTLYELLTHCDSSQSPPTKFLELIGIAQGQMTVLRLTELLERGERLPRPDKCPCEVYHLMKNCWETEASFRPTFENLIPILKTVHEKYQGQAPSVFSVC
Experiment: Binding affinity to human wild-type partial length TYK2 JH2 (G556 to D888 residues) expressed in mammalian expression system by KINOMEscan assay
Documented Kd across a set of compounds
metricName: Kd (pM)

> print(dat)
                                   compound  censoringqualifier  reportedmeasurement
1  [2H]C([2H])([2H])NC(=O)c1nnc(NC(=O)C2CC2)cc1Nc1cccc(-n2cc3c(n2)CN(S(C)(=N)=O)C3)c1OC (stereo unspecified)                   =                    9
2  [2H]C([2H])([2H])NC(=O)c1nnc(Nc2ccc(N3CC(O)C3)cn2)cc1Nc1cccc(-c2ncn(C)n2)c1OC                   =                    5
3  CNc1cc(Nc2cccnc2OC)nc2c(C(=O)NCC3(CO)CC3)cnn12                   <                  200
4  [2H]C([2H])([2H])NC(=O)c1nnc(NC(=O)C2CC2)cc1Nc1cccc(-c2noc(CN3CCN(S(C)(=N)=O)CC3)n2)c1OC (stereo unspecified)                   =                    8
5  CNc1cc(Nc2cccn(-c3cnc(C(C)(C)O)cn3)c2=O)nc2c(C(=O)NC3CCC3)cnn12                   <                  200
6  CNC(=O)c1nnc(NC(=O)N2CCC2)cc1Nc1cccc(-c2ncn(C)n2)c1OC                   =                   28

###

Documented bioavailability across a set of compounds
Experiment: Oral bioavailability in C57BL/6 mouse at 10 mg/kg by LC/MS-MS analysis
Assay type: ADME, organism-based
Conditions: in vivo
metricName: bioavailability (%)

> print(dat)
                            structurestring       metricname  readoutunits  reportedmeasurement
1  [2H]C([2H])([2H])NC(=O)c1nnc2cc1Nc1cc(cc(-c3ccn(C)n3)c1OC)CCOCc1cccc(n1)N2  bioavailability             %                  147
2  CNC(=O)c1cnc2cc1Nc1cc(cc(-c3ccn(C)n3)c1OC)CCOCc1nc(ccc1C)N2  bioavailability             %                  148

###

Target: Non-receptor tyrosine-protein kinase TYK2 (Homo sapiens)
Test: Inhibition of TYK2 JH2 (unknown origin)
pIC50: −log10 of the molar value.
metricName: pIC50

> print(dat)
                            structurestring  reportedmeasurement
1  CO[C@@]1(c2cc(C)cc(-n3cc(C4CC4)c4cnc(NC(C)=O)cc43)n2)CCOC1                 9.22
2  CO[C@@]1(c2cc(C)cc(-n3cc(C4CCN(C)CC4)c4cnc(NC(N)=O)cc43)n2)CCOC1                 8.68

###

Target: UniProtKB P23458
Assay: Inhibition of JAK1 (unknown origin)
pIC50: −log10 of the molar value.
metricName: pIC50

> print(dat)
                            structurestring  reportedmeasurement
1  CNC(=O)c1cnc2cc1Nc1cc(cc(-c3ccn(C)n3)c1OC)CCOCc1nc(ccc1C)N2               < 5.00
2  CO[C@@]1(c2cc(C)cc(-n3cc(C4CCN(C)CC4)c4cnc(NC(N)=O)cc43)n2)CCOC1               < 5.00
3  [2H]C([2H])([2H])NC(=O)c1nnc2cc1Nc1cc(cc(-c3ccn(C)n3)c1OC)CCOCc1cccc(n1)N2               < 5.00

###

Documented IC50 across a set of compounds
Molecular target: Non-receptor tyrosine-protein kinase TYK2 (Homo sapiens)
Assay: Inhibition of TYK2 JH2 in human KIT225 cells assessed as reduction of IFNalpha induced STAT1 phosphorylation by AlphaLISA assay
Type: cell-based
metricName: IC50 (nM)

> print(dat)
                            structurestring  reportedmeasurement
1  CNC(=O)c1nnc(NC(=O)N2CCC2)cc1Nc1cccc(-c2ncn(C)n2)c1OC                   54
2  [2H]C([2H])([2H])NC(=O)c1nnc(Nc2ccc(N3CC(O)C3)cn2)cc1Nc1cccc(-c2ncn(C)n2)c1OC                   83

###

Target: Tyrosine-protein kinase JAK2 (Homo sapiens)
Sequence (O60674 whole entry): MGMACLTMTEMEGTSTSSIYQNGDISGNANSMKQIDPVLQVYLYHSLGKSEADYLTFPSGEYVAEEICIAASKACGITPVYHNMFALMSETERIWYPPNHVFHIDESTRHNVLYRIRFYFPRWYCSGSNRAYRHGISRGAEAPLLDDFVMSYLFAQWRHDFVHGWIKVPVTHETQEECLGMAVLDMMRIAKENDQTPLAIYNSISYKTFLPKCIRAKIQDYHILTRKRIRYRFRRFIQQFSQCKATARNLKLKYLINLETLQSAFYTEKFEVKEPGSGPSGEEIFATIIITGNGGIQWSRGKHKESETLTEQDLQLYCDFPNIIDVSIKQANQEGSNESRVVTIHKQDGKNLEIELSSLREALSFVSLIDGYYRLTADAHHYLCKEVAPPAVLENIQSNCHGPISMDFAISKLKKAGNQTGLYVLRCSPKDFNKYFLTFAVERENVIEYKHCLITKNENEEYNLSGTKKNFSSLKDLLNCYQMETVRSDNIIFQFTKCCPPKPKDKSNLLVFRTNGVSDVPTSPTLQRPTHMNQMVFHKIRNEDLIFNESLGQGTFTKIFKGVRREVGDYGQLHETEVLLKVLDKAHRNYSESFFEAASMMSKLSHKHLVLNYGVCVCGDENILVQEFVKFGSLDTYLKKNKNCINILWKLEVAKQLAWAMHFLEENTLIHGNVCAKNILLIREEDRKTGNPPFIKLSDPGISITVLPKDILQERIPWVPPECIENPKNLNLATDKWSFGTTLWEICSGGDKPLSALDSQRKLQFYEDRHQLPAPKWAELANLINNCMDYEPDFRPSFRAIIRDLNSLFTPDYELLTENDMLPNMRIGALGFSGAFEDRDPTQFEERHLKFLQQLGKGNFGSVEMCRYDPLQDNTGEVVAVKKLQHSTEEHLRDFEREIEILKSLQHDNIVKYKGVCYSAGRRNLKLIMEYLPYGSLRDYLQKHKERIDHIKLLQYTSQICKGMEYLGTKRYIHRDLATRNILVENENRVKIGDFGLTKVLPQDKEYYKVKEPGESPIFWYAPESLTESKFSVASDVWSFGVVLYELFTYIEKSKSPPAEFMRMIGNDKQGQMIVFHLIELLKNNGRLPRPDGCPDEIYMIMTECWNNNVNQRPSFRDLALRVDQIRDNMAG
Experiment: Inhibition of human recombinant JAK2 preincubated for 15 mins followed by substrate addition measured after 60 mins by HTRF assay
pIC50: −log10 of the molar value.
Documented pIC50 across a set of compounds
metricName: pIC50

> print(dat)
                            structurestring                              targetsystem  metricname  reportedmeasurement
1  NC(=O)c1nnc(-c2c(F)cccc2F)cc1Nc1ccc(N2CCOCC2=O)cn1  Tyrosine-protein kinase JAK2 (Homo sapiens)       pIC50                 8.30
2  NC(=O)c1nnc(-c2c(F)cccc2F)cc1Nc1ccc(N2CCOCC2)cn1  Tyrosine-protein kinase JAK2 (Homo sapiens)       pIC50                 8.40
3  NC(=O)c1nnc(-c2c(F)cccc2Cl)cc1Nc1ccc(N2CCOCC2)cc1  Tyrosine-protein kinase JAK2 (Homo sapiens)       pIC50                 8.05

###

Biological target: Tyrosine-protein kinase JAK1 (Homo sapiens, UniProt P23458)
Sequence (P23458 whole entry): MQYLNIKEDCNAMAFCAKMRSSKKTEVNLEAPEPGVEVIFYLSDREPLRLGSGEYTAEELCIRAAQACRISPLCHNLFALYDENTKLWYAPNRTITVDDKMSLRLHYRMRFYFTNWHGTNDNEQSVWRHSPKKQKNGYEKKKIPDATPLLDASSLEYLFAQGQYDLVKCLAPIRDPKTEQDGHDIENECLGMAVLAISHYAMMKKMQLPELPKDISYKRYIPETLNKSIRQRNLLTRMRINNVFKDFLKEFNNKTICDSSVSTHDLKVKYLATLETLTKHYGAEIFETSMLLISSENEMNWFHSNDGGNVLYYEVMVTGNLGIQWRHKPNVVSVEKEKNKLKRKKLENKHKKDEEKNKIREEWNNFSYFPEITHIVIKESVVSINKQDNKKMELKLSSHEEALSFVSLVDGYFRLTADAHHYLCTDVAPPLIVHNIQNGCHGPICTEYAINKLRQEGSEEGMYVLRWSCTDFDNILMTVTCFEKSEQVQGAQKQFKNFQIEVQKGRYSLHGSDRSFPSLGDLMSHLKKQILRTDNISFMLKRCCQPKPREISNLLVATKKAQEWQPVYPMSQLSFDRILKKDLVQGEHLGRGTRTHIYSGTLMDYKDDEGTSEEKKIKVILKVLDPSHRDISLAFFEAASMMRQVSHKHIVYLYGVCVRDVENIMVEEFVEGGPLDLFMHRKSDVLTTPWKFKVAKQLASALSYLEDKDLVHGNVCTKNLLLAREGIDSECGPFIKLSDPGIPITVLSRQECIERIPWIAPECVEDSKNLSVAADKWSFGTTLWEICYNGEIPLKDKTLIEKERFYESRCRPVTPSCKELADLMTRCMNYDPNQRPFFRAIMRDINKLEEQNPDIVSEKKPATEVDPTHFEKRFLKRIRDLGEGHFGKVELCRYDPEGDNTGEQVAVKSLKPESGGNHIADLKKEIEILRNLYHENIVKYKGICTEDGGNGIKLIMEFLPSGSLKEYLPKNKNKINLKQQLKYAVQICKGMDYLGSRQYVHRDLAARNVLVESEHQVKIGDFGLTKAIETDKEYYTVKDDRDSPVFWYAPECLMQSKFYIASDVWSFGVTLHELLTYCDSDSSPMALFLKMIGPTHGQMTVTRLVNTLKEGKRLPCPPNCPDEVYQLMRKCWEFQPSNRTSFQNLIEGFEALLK
Assay: Inhibition of JAK1 (unknown origin) using ULight - JAK (Tyr1023) substrate incubated for 60 mins in presence of ATP by envision plate reader based analysis
pIC50: −log10 of the molar value.
metricName: pIC50

> print(dat)
                            structurestring  metricname  reportedmeasurement
1  Cn1cc(-c2cn3ncnc3c(-c3ccn([C@]4(CC#N)C[C@@H](C#N)C4)c3)n2)cn1       pIC50               < 5.30

###

Target: Non-receptor tyrosine-protein kinase TYK2 (Homo sapiens, UniProt P29597)
Assay: Inhibition of TYK2 signal transduction pathway in human PBMC cells assessed as reduction in GM-CSF induced p-STAT5 level
Assay type: cell-based
pIC50: −log10 of the molar value.
metricName: pIC50

> print(dat)
                            structurestring  reportedmeasurement
1  [2H]C([2H])([2H])CC(=O)c1cnc(Nc2cccc(C#N)n2)cc1Nc1nccc(-c2ncn(C([2H])([2H])[2H])n2)c1OC               ≥ 6.00
2  [2H]C([2H])([2H])CC(=O)c1cnc(Nc2cccc(C#N)n2)cc1Nc1cccc(-c2ncn(C([2H])([2H])[2H])n2)c1OC               ≥ 6.00
3  [2H]C([2H])([2H])CC(=O)c1cnc(NC(=O)C2CC2)cc1Nc1nccc(-c2ncn(C([2H])([2H])[2H])n2)c1OC               < 5.00

###

Assay: AUC in C57BL/6 mouse at 10 mg/kg, po by LC/MS-MS analysis
Assay type: ADME, organism-based
Parameters: dose 10 mg/kg, route po
Settings: in vivo
metricName: AUC (ng·h/mL)

> print(dat)
                            structurestring  metricname  readoutunits  reportedmeasurement
1  CO[C@@]1(c2cc(C)cc(-n3cc(C4CCN(C)CC4)c4cnc(NC(N)=O)cc43)n2)CCOC1         AUC       ng·h/mL                16600
2  CO[C@@]1(c2cc(C)cc(-n3cc(C4CC4)c4cnc(NC(C)=O)cc43)n2)CCOC1         AUC       ng·h/mL                10900
